- system: eIGPs mutant S60A (Escherichia coli, UniProt P00909, S61A)
- protocol: IGPs enzyme assay, inhibition by anthranilate
pIC50: −log10 of the molar value.
attribute_measured: pIC50

molecule: Nc1ccccc1C(=O)O [anthranilate, 2-Aminobenzoic acid]
system: eIGPs mutant S60A (Escherichia coli, UniProt P00909, S61A)
attribute_measured: pIC50
reported_measurement: ~2.70

###

- system: eIGPs-6His (Escherichia coli, UniProt P00909)
- Sequence (P00909 2-260): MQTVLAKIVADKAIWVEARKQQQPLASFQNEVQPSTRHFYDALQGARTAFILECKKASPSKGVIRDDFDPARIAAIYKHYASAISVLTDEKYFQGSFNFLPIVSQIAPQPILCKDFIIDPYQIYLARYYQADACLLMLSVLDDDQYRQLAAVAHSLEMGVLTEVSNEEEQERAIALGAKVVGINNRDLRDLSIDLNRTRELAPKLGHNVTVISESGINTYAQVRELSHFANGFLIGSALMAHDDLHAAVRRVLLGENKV
pIC50: −log10 of the molar value.

compound: Nc1ccccc1C(=O)O [anthranilate, 2-Aminobenzoic acid]
pIC50: ~3.15

###

- system: 6His-eIGPs (Escherichia coli, UniProt P00909)
- Construct: made in house; host or cells: E. coli Top10
- Sequence (P00909 2-260): as above
- protocol: IGPs enzyme assay, inhibition by anthranilate
- Type: biochemical
- condition_parameters: isolated IGPs domain, N-terminal His-tag

molecule: Nc1ccccc1C(=O)O [anthranilate, 2-Aminobenzoic acid]
system: 6His-eIGPs (Escherichia coli, UniProt P00909)
IC50: ~400 µM
